Test system: EKVX NSCLC
Assay: NCI-60 one-dose screen, 48 h (100 = growth as untreated, 0 = no growth, -100 = all killed)
Settings: 10 µM unless noted
About 83,000 compounds went through this panel and 20% of them were active in at least one assay; those are over-represented in the sample as a whole.
The following compounds are listed with their measured growth values.
Give the value, in units of %, as a plain number.

Reference set (8 entries):
| compound | growth / % |
| --- | --- |
| COc1ccc(C(=O)N2NC(=O)/C(=C/c3cn(-c4ccccc4)nc3-c3ccccc3)N=C2c2ccccc2)cc1 | 96.1 |
| CC12CCCC(CC(=O)c3[nH]c4ccccc4c31)C2 (configuration not stated) | 42.1 |
| Cn1c(=O)c2[nH]c(C3CC=CCC3)nc2n(C)c1=O (configuration not stated) | 113 |
| COc1ccc(-c2cc3c(OC)c(OC)c(OC)cc3oc2=O)cc1 | 64.3 |
| Cc1c(C(N)=O)sc2c1c(=O)n(Cc1ccccc1)c1nnc(Nc3ccccc3)n21 | 94.1 |
| CCN(CC)c1ccc(N=O)cc1 | 91.1 |
| CCCCOc1ccc(/C=C2/SC(N3CCOCC3)=NC2=O)cc1OCC | 90.8 |
| O=[N+]([O-])c1cccc(-c2nc3sccn3c2-c2ccnc(NCCCNS(=O)(=O)c3ccc(C(F)(F)F)cc3)n2)c1 | 38.1 |

Give growth for NC1=C(/C(N)=N/O)C(c2ccccc2)c2ccc3ccccc3c2O1 (configuration not stated) tested on EKVX NSCLC.
29.1

Give growth only, for CC(=O)Nc1scc[n+]1Cc1ccccc1 , using EKVX NSCLC data.
103

Lab note: record growth of O=C(CSc1nc2ccccc2[nH]1)Nc1ccc(-c2nc3ccccc3s2)c(Cl)c1 tested on EKVX NSCLC.
27.1

# return growth of CCOC(=O)c1cn2c3c(cc(C)cc3c1=O)C(=O)/C(=C/c1ccccc1)C2 (system: EKVX NSCLC)
101

Enter recorded growth with EKVX NSCLC for CN(C[C@H]1Cc2c(cccc2N2CCN(c3ncccn3)CC2)CN1)[C@H]1CCCc2cccnc21 here.
37.7

* * *

Tested on: SF-539 CNS
Assay: NCI-60 one-dose screen, 48 h
Details: 10 µM unless noted
The panel holds about 83,000 compounds, 20% with a hit somewhere; the sample as a whole holds those more often. Calls of active or inactive are those of the source. Rule for the calls: active = growth percent below 10; inactive = the rest.
Give one outcome, nothing more. List: label 1 = active, label 0 = inactive

As a guide, the following entries are already answered.
| compound | classification |
| --- | --- |
| C=C[C@@H]1C[C@@H]2Cc3cc(F)ccc3N1O2 | label 0 |
| C[n+]1c(/C=C/c2c(O)ccc3ccccc23)ccc2ccccc21 | label 1 |
| CCCCCCCCCCCCCCCCCCNC(=O)[C@H]1CSC(c2cccs2)N1 (stereo partly specified) | label 1 |
| Cc1ccc(N2CCN(C(C)C(N)=O)CC2)cc1 (stereo unspecified) | label 0 |
| Cc1cc(N/N=C/c2nc(-c3ccccc3)oc2C)c2cc(Cl)ccc2n1 | label 1 |

Hi, do you know how CCN(CC)c1ccc(CNc2ccnc3ccccc23)cc1 came out in this test?
label 0

// param item: NNc1cccc(/C=C/c2ccccc2)cc1=O ; yields the recorded call
label 0

Which outcome did this test record for the compound COc1ccc(OC)c(/C=C2\Oc3cc(OCCCN4CCCC4)ccc3C2=O)c1 ?
label 0

Write down the call the test reported for this compound. Item: O=C(NCc1cn(Cc2cccc(Oc3ccccc3)c2)nn1)c1cccnc1Nc1ccc(F)cc1
label 0

Dear colleague, could you share the recorded outcome for COc1ccc(/C(C#N)=C/c2cc(OC)c(OC)c(OC)c2)cc1 when you have a moment?
label 0

State the result this test recorded for COc1ccc(Nc2nn3c(C)cc(C)nc3c2C(=O)Nc2ccc(C)cc2)c(OC)c1 .
label 0

Recorded call for O=C(O)/C=C/C(=O)c1ccc(Cl)cc1 ?
label 0

Test call for this compound, please: C=C1CCC2C(C)(CO)C(O)CCC2(C)C1CC(NCc1ccccc1)C1=CCOC1=O (stereo unspecified)
label 0

Each compound tested received a call. Report the one for O=C(CCl)N(C1CCCCC1)C1CCCCC1 .
label 0

What did the test return for C=C[C@@H]1C[C@H](O)Cc2c(C)cc(C)cc2N1 ?
label 0

I would be grateful if you could indicate the recorded call for COc1cccc(-c2nc3sccn3c2-c2ccnc(NCCCNS(=O)(=O)c3ccc(F)cc3)c2)c1 .
label 0

Just curious, what result did c1ccc(-c2nc(N3CCNCC3)c3nc(-c4ccccc4)oc3n2)cc1 get here?
label 1

Just curious, what result did O=C1CS/C(=N\Nc2cc(=O)[nH]c3ccccc23)N1c1ccccc1 get here?
label 0

For this compound, state the assay outcome: COc1cc(C2C3=C(COC3=O)Nc3cc4c(cc32)OCO4)cc2c1OCO2 (stereo unspecified)
label 1

Call for entry O=C(O)C1CCCCN1c1nc(Cl)nc(Cl)n1 (stereo unspecified) :
label 0

Hi team, can someone confirm the assay call for C=C[C@@H]1C[C@H](O)Cc2ccccc2N1 ?
label 0

Test call, this compound: O=[N+]([O-])c1cccc(-c2nc3sccn3c2-c2ccnc(NCCCNS(=O)(=O)c3ccc(Cl)cc3)n2)c1
label 0

// return assay outcome for COC(=O)[C@]12CC[C@@H](C)[C@H](C)[C@@H]1C1=CC[C@@H]3[C@@]4(C)C(C=O)=C[C@@](C)(COC(=O)c5ccco5)[C@@H]4[C@H](O)C[C@@]3(C)[C@]1(C)CC2
label 1
